target: Arachidonate 5-lipoxygenase-activating protein (Homo sapiens, UniProt P20292); test: Binding affinity to FLAP in human PMN derived membrane
Sequence (P20292 whole entry): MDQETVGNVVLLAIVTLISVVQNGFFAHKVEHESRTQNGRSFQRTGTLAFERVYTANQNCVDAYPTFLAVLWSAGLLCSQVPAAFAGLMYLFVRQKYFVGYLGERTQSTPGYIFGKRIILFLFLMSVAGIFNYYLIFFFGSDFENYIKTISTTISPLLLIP
pIC50: −log10 of the molar value.
Tag: y if measured pIC50 is not below 7, n if it is.

CC(=O)N1c2ccccc2C[C@H]1COc1ccc2c(c1)c(Cc1ccccc1)c(CC(C)(C)C(=O)O)n2Cc1ccc(Cl)cc1 = y
CC(C)(C)OC(=O)N1CCC[C@H]1COc1ccc2c(c1)c(SC(C)(C)C)c(CC(C)(C)C(=O)O)n2Cc1ccc(Cl)cc1 = n
CC(C)(C)Sc1c(CC(C)(C)C(=O)O)n(Cc2ccc(Cl)cc2)c2ccc(OCC(=O)c3ccc(F)cc3)cc12 = y
CC(C)C(=O)N1CCC[C@H]1COc1ccc2c(c1)c(SC(C)(C)C)c(CC(C)(C)C(=O)O)n2Cc1ccc(Cl)cc1 = n
COc1ccc(-c2ccc(Cn3c(CC(C)(C)C(=O)O)c(SC(C)(C)C)c4cc(OC[C@@H]5Cc6ccccc6N5C(C)=O)ccc43)cc2)nn1 = y
CC(=O)N1c2ccccc2C[C@H]1COc1ccc2c(c1)c(SC(C)(C)C)c(CC(C)(C)C(=O)O)n2Cc1ccc(Cl)cc1 = y
CC(C)(C)Sc1c(CC(C)(C)C(=O)O)n(Cc2ccc(Cl)cc2)c2ccc(OC[C@@H]3CCCN3C(=O)C3CC3)cc12 = y
CC(C)(C)Sc1c(CC(C)(C)C(=O)O)n(Cc2ccc(Cl)cc2)c2ccc(OC[C@@H]3CCCN3)cc12 = n

stdin: Please indicate if the recorded pIC50 for `COc1ccc(-c2ccc(Cn3c(CC(C)(C)C(=O)O)c(SC(C)(C)C)c4cc(OC[C@@H]5Cc6ccccc6N5C(C)=O)ccc43)cc2)nc1` meets or exceeds 7.
stdout: y

stdin: Please indicate if the recorded pIC50 for `CC(=O)N1c2ccccc2C[C@H]1COc1ccc2c(c1)c(CCC(C)(C)C)c(CC(C)(C)C(=O)O)n2Cc1ccc(Cl)cc1` meets or exceeds 7.
stdout: y

stdin: Please indicate if the recorded pIC50 for CC(C)(C)Sc1c(CC(C)(C)C(=O)O)n(Cc2ccc(Cl)cc2)c2ccc(OCC(O)c3ccc(F)cc3)cc12 (stereo not given) meets or exceeds 7.
stdout: y

stdin: Please indicate if the recorded pIC50 for `CC(C)(C)Sc1c(CC(C)(C)C(=O)O)n(Cc2ccc(Cl)cc2)c2ccc(OC[C@@H]3CCCN3S(C)(=O)=O)cc12` meets or exceeds 7.
stdout: n

stdin: Please indicate if the recorded pIC50 for `CC(=O)N[C@H](COc1ccc2c(c1)c(SC(C)(C)C)c(CC(C)(C)C(=O)O)n2Cc1ccc(Cl)cc1)c1ccccc1` meets or exceeds 7.
stdout: n

stdin: Please indicate if the recorded pIC50 for `CC(=O)N1c2ccccc2C[C@H]1COc1ccc2c(c1)cc(CC(C)(C)C(=O)O)n2Cc1ccc(Cl)cc1` meets or exceeds 7.
stdout: n

----------
Kindly state IC50 for each of the entries shown.
assay: Inhibition of LTB4 production in calcium ionophore A23187 treated human leukocytes; type: functional, cell-based; settings: Leukocyte
Record the result as a number with its unit.

Reference set (3 entries):
COc1ccc(-c2ccc(Cn3c(CC(C)(C)C(=O)O)c(SC(C)(C)C)c4cc(OC[C@@H]5Cc6ccccc6N5C(C)=O)ccc43)cc2)nc1 = 0.5 nM
CC(C)(C)Sc1c(CC(C)(C)C(=O)O)n(Cc2ccc(Cl)cc2)c2ccc(OC[C@@H]3CCC(=O)N3)cc12 = 108 nM
CC(C)(C)OC(=O)N1c2ccccc2C[C@@H]1COc1ccc2c(c1)c(SC(C)(C)C)c(CC(C)(C)C(=O)O)n2Cc1ccc(Cl)cc1 = 102 nM

With those in mind, consider the next compound.
stdin: For the compound `CC(=O)N1c2ccccc2C[C@H]1COc1ccc2c(c1)c(S(=O)(=O)C(C)(C)C)c(CC(C)(C)C(=O)O)n2Cc1ccc(Cl)cc1` , report IC50.
stdout: 19 nM

----------
assay: Inhibition of LTB4 production in calcium ionophore A23187 treated human leukocytes; format: functional, cell-based; conditions: Leukocyte
Kindly state pIC50 for each of the entries shown.
Give bare numbers, as −log10 of the molar value.

Reference set (2 entries):
CC(C)(C)Sc1c(CC(C)(C)C(=O)O)n(Cc2ccc(Cl)cc2)c2ccc(OCC(=O)c3ccc(F)cc3)cc12 = 6.11
COc1ccc(-c2ccc(Cn3c(CC(C)(C)C(=O)O)c(SC(C)(C)C)c4cc(OC[C@@H]5Cc6ccccc6N5C(C)=O)ccc43)cc2)cn1 = 8.74

Each compound below has a recorded value; state its pIC50.
1. COc1ccc(-c2ccc(Cn3c(CC(C)(C)C(=O)O)c(SC(C)(C)C)c4cc(OC[C@@H]5Cc6ccccc6N5C(C)=O)ccc43)cc2)nn1
2. CC(C)(C)Sc1c(CC(C)(C)C(=O)O)n(Cc2ccc(Cl)cc2)c2ccc(OC[C@@H]3CCCN3C(=O)C3CC3)cc12

stdout:
[7.90, 8.10]

Each compound below has a recorded value; state its pIC50.
1. CC(=O)N1c2ccccc2C[C@H]1COc1ccc2c(c1)c(SC(C)(C)C)c(CC(C)(C)C(=O)O)n2Cc1ccc(Cl)cc1
2. COc1cnc(-c2ccc(Cn3c(CC(C)(C)C(=O)O)c(SC(C)(C)C)c4cc(OC[C@@H]5Cc6ccccc6N5C(C)=O)ccc43)cc2)nc1
3. CC(=O)N1c2ccccc2C[C@H]1COc1ccc2c(c1)c(C(=O)C(C)(C)C)c(CC(C)(C)C(=O)O)n2Cc1ccc(Cl)cc1

stdout:
9.30
9.22
8.89

----------
tested on: Blood; assay: Inhibition of LTB4 production in calcium ionophore treated A23187 human whole blood after 15 mins; assay type: functional, tissue-based; settings: 0.25 h
valueKind: log10(IC50) (log10 of the value in nM)
All values: log10 IC50 [nM].

Reference set (10 entries):
CC(=O)N1c2ccccc2C[C@H]1COc1ccc2c(c1)c(C(=O)C(C)(C)C)c(CC(C)(C)C(=O)O)n2Cc1ccc(Cl)cc1 = 2.72
CC(C)(C)Sc1c(CC(C)(C)C(=O)O)n(Cc2ccc(Cl)cc2)c2ccc(OC[C@@H]3CCC(=O)N3)cc12 = 3.96
CCC(=O)N1CCC[C@H]1COc1ccc2c(c1)c(SC(C)(C)C)c(CC(C)(C)C(=O)O)n2Cc1ccc(Cl)cc1 = 2.49
CC(C)(C)Sc1c(CC(C)(C)C(=O)O)n(Cc2ccc(Cl)cc2)c2ccc(OC[C@@H]3CCCN3C(=O)C3CC3)cc12 = 2.95
CC(=O)N1c2ccccc2C[C@H]1COc1ccc2c(c1)c([S+]([O-])C(C)(C)C)c(CC(C)(C)C(=O)O)n2Cc1ccc(Cl)cc1 (stereo partly drawn) = 4.37
CC(C)(C)Sc1c(CC(C)(C)C(=O)O)n(Cc2ccc(Cl)cc2)c2ccc(OCC(O)c3ccc(F)cc3)cc12 (stereo not drawn) = 2.67
CC(=O)N1c2ccccc2C[C@H]1COc1ccc2c(c1)c(C(=O)C(C)C)c(CC(C)(C)C(=O)O)n2Cc1ccc(Cl)cc1 = 3.69
CC(C)(C)Sc1c(CC(C)(C)C(=O)O)n(Cc2ccc(Cl)cc2)c2ccc(OCC(=O)c3ccc(F)cc3)cc12 = 4.07
CC(C)(C)OC(=O)N1CCC[C@@H]1COc1ccc2c(c1)c(SC(C)(C)C)c(CC(C)(C)C(=O)O)n2Cc1ccc(Cl)cc1 = 4.83
COc1ccc(-c2ccc(Cn3c(CC(C)(C)C(=O)O)c(SC(C)(C)C)c4cc(OC[C@@H]5Cc6ccccc6N5C(C)=O)ccc43)cc2)cn1 = 2.44

Each compound below has a recorded value; state its log10(IC50).
1. COc1ccc(-c2ccc(Cn3c(CC(C)(C)C(=O)O)c(SC(C)(C)C)c4cc(OC[C@@H]5Cc6ccccc6N5C(C)=O)ccc43)cc2)nc1
2. CC(C)(C)Sc1c(CC(C)(C)C(=O)O)n(Cc2ccc(Cl)cc2)c2ccc(OC[C@@H]3Cc4ccccc4N3)cc12
3. CC(C)(C)OC(=O)N1CCC[C@H]1COc1ccc2c(c1)c(SC(C)(C)C)c(CC(C)(C)C(=O)O)n2Cc1ccc(Cl)cc1

stdout:
2.57
3.16
4.24

----------
Kindly state log10 of IC50 for each of the entries shown.
biological target: Arachidonate 5-lipoxygenase-activating protein (Homo sapiens, UniProt P20292); test: Binding affinity to FLAP in human PMN derived membrane
All values: log10 IC50 [nM].

Reference set (5 entries):
COc1nc(-c2ccc(Cn3c(CC(C)(C)C(=O)O)c(SC(C)(C)C)c4cc(OC[C@@H]5Cc6ccccc6N5C(C)=O)ccc43)cc2)cs1 = 0.40
CC(=O)N1c2ccccc2C[C@H]1COc1ccc2c(c1)c(C(=O)C(C)(C)C)c(CC(C)(C)C(=O)O)n2Cc1ccc(Cl)cc1 = 1.28
COc1ccc(-c2ccc(Cn3c(CC(C)(C)C(=O)O)c(SC(C)(C)C)c4cc(OC[C@@H]5Cc6ccccc6N5C(C)=O)ccc43)cc2)cn1 = 0.97
CC(C)(C)Sc1c(CC(C)(C)C(=O)O)n(Cc2ccc(Cl)cc2)c2ccc(OC[C@@H]3Cc4ccccc4N3)cc12 = 1.93
COc1cnc(-c2ccc(Cn3c(CC(C)(C)C(=O)O)c(SC(C)(C)C)c4cc(OC[C@@H]5Cc6ccccc6N5C(C)=O)ccc43)cc2)nc1 = 0.34

Each molecule below has a recorded value; state its log10 of IC50.
1. CC(C)(C)Sc1c(CC(C)(C)C(=O)O)n(Cc2ccc(Cl)cc2)c2ccc(OCC(N)=O)cc12
2. CC(=O)N1CCC[C@H]1COc1ccc2c(c1)c(SC(C)(C)C)c(CC(C)(C)C(=O)O)n2Cc1ccc(Cl)cc1

stdout:
1: 1.58; 2: 0.78

Values from ChEMBL document CHEMBL1153124
